Tested on: HCT116 cells
Experiment: cell cycle analysis, HCT116
Format: cell-based
Details: HCT116, Table 3
Would you kindly list S (%) for each of these compounds?
Report only the number, with the unit % understood.

Return reported S (%); argument: COc1cc(OC)c2ccc(C=O)c(O)c2c1 [MRL, reference compound]
11.5

// S (%) lookup, key: OC[C@H]1O[C@@H]2O[C@H]3[C@H](O)[C@@H](O)[C@@H](O[C@H]4[C@H](O)[C@@H](O)[C@@H](O[C@H]5[C@H](O)[C@@H](O)[C@@H](O[C@H]6[C@H](O)[C@@H](O)[C@@H](O[C@H]7[C@H](O)[C@@H](O)[C@@H](O[C@H]8[C@H](O)[C@@H](O)[C@@H](O[C@H]1[C@H](O)[C@H]2O)O[C@@H]8CO)O[C@@H]7CO)O[C@@H]6CO)O[C@@H]5CO)O[C@@H]4CO)O[C@@H]3CO [CD, β-cyclodextrin]
12.3

Would you kindly share the measured S (%) for O=C(N/N=C/c1ccc(O)c(O)c1O)c1cc2ccccc2cc1O [MRL THB] ?
28.1

Endpoint output: S (%) of O=C(N/N=C/c1ccc(O)c(O)c1)c1cc2ccccc2cc1O [MRL DHB] . Value?
13.0
